# protocol_notes: Pharmacokinetics and bioavailability in rats
# Assay type: in vivo
# assay_setup: both sexes, Sprague-Dawley, rat, plasma, iv, 25 mg/kg, SD rats, IV 25 mg/kg
Structures can show the parent of a compound that is named as a salt.
readout_label: AUC(0-inf) (ng·h/mL)

[
  {
    "compound": "CNc1ncc(C#Cc2cc(C(=O)Nc3cc(-n4cnc(C)c4)cc(C(F)(F)F)c3)ccc2C)cn1 [D800 hydrochloride salt]",
    "readout_value": 48600
  }
]

====

# protocol_notes: Pharmacokinetics and bioavailability in rats
# Format: in vivo
# assay_setup: both sexes, Sprague-Dawley, rat, plasma, po, 25 mg/kg, SD rats, PO 25 mg/kg; read-out: Tmax
Counter-ions that a name gives are not always drawn.
readout_label: Tmax (h)

[
  {
    "compound": "Cc1cn(-c2cc(NC(=O)c3ccc(C)c(C#Cc4cnc(NC5CC5)nc4)c3)cc(C(F)(F)F)c2)cn1 [D747 hydrochloride salt]",
    "readout_value": 4.5
  },
  {
    "compound": "Cc1ccc(C(=O)Nc2ccc(CN3CCN(C)CC3)c(C(F)(F)F)c2)cc1C#Cc1cnc2ccnn2c1 [D856 dimesylate salt]",
    "readout_value": 6.5
  },
  {
    "compound": "Cc1ccc(C(=O)Nc2cc(-n3ccnc3)cc(C(F)(F)F)c2)cc1C#Cc1cnc2[nH]ncc2c1 [D831 mesylate salt]",
    "readout_value": 2.25
  },
  {
    "compound": "CCNc1ncc(C#Cc2cc(C(=O)Nc3cc(-n4cnc(C)c4)cc(C(F)(F)F)c3)ccc2C)cn1 [D755 hydrochloride salt]",
    "readout_value": 6.25
  },
  {
    "compound": "Cc1ccc(C(=O)Nc2ccc(CN3CCN(C)CC3)c(C(F)(F)F)c2)cc1C#Cc1cnc(NC2CC2)nc1 [D825 mesylate salt, trimesylate]",
    "readout_value": 4.75
  },
  {
    "compound": "Cc1ncn(-c2cc(NC(=O)c3ccc(C)c(C#Cc4cnc5[nH]ncc5c4)c3)cc(C(F)(F)F)c2)n1 [D835 hydrochloride salt]",
    "readout_value": 4
  },
  {
    "compound": "Cc1cn(-c2cc(NC(=O)c3ccc(C)c(C#Cc4cnc5ccnn5c4)c3)cc(C(F)(F)F)c2)cn1 [D822 mesylate salt]",
    "readout_value": 3
  },
  {
    "compound": "Cc1ccc(C(=O)Nc2ccc(CN3CCN(C)CC3)c(C(F)(F)F)c2)cc1C#Cc1cnc2[nH]ncc2c1 [D824 hydrochloride salt, dihydrochloride]",
    "readout_value": 6
  }
]
